Data origin: the supplement of paper PMC10567573

B1: ATE1 (parent)
chain: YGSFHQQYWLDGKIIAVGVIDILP

- Variants of: B1
- protocol-description: protein stability index of a GFP-peptide fusion (GPS, HEK-293T) (PSI 1-6); higher = more stable;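 note: lentivirally expressed fusions sorted by FACS into six bins by GFP to DsRed ratio, PSI derived from sequencing read proportions per bin multiplied by bin number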
- condition-description: c terminus: a fixed tail appended
measured-endpoint: protein stability index

{"mutation": "V19S", "protein stability index": 2.97}
{"mutation": "Q6I", "protein stability index": 3.08}

## Input Please give the measured protein stability index for this variant: F4D
## Output 2.95
